- Target Or Test System: β-secretase (BACE) (Homo sapiens)
- Construct: purchased Panvera
- Sequence (P56817 46-501): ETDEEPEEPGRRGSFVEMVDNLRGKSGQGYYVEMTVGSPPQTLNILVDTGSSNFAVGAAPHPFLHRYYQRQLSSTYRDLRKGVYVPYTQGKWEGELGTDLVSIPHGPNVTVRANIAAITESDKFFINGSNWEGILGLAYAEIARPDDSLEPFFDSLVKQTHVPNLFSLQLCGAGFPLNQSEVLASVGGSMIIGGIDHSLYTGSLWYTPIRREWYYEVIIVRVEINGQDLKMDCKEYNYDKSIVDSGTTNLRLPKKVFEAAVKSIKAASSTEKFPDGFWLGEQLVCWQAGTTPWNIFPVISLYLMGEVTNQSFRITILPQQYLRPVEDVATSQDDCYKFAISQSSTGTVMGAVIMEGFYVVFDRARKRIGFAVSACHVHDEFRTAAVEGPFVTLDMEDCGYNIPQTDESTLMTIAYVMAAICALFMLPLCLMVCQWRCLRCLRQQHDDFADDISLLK
- Assay Name: BACE FS1% Inhibition Assay (Example 160)
- Assay type: biochemical
- Condition: 1 μM test compound
- Procedure: The following reagents were used in this assay: sodium acetate, PEB8000 (Sigma), DMSO, HEPES, FS1 substrate [[…]], β-secretase (BACE) (Panvera), and 96-well plate (HE microplate, Molecular Devices). […] The FS1-substrate stock solution was prepared in DMSO as a 10 mg/mL solution. […] For test compounds, % inhibition was determined at each concentration as follows: [formula]
Measured Property: % Inhibition (FS)

>>> result_value("NC1=Nc2ccc(-c3cnc4ccccc4c3)cc2CN1CCNC(=O)C12CC3CC(CC(C3)C1)C2 [Compound 672]")
"<30%"
>>> result_value("NC1=Nc2ccc(C3=CCCCC3)cc2CN1CCNC(=O)C1CCC(C(F)(F)F)CC1 (centres unmarked) [Compound 704]")
"<30%"
>>> result_value("NC1=Nc2ccc(-c3ccccc3Cl)cc2CN1CCNC(=O)C1CCOCC1 [Compound 689]")
"82%"
>>> result_value("NC1=Nc2ccc(-c3ccccc3Cl)cc2CN1CCNC(=O)C1CCC(C(F)(F)F)CC1 (centres unmarked) [Compound 690]")
"<30%"
>>> result_value("COc1ccccc1-c1ccc2c(c1)CN([C@@H](CCC(=O)N(C)Cc1cnn(-c3ccccc3)c1)C1CCCCC1)C(N)=N2 [Compound 717]")
"39%"
>>> result_value("COc1ccccc1-c1ccc2c(c1)CN(CCNC(=O)C1CCOCC1)C(N)=N2 [Compound 697]")
"<30%"
>>> result_value("CN(C(=O)CC[C@@H](C1CCOCC1)N1Cc2cc(Oc3ccccc3)ccc2N=C1N)[C@H]1CC[C@H](C(=O)O)CC1 [Compound 746]")
"104%"
>>> result_value("CCCCC(CC)C(=O)NCCN1Cc2cc(-c3ccc4ccccc4c3)ccc2N=C1N (centres unmarked) [Compound 669]")
"<30%"
